assay_method_text: soluble on expression in E. coli; label from the status in PepcDB or PDB records
measured_metric: soluble on expression in E. coli

Worked cases, soluble on expression in E. coli given:
{"columns": ["primary_sequence", "result"],
 "data": [
  ["TVQCKVTLLDGTEYSCDLEKHAKGQVLFDKVCEHLNLLEKDYFGLLFQESPEQKNWLDPAKEIKRQLRNLPWLFTFNVK", "not soluble"],
  ["GMSISSKAKEILTQFTREVWSEGNIEASDKYIAPKYTVLHDPGDPWEGRELDVAGYKERVKTLRAAFPDQCFDIQGLFADGDAVVMTWLWTATHKEDIPGFPSTGKQIKMSGATVYYFDGNRLTGHWQITDRLGVYQQLRQAAAGA", "soluble"],
  ["TIVDLEDNVLVIGFGRFSQIVCQTLLIRGISVSVIDRNIENIRAAAKFGFKVYYGDGIRLDVLRAAGIEKAKCVVLGINDTQRIEHIVSQMKEAYPNLPILTRTYDRKTTVSLIKQDVDFIVRETFESAITLSRATLMKLGID", "not soluble"],
  ["GDKVIVMGHKRPDLDAIGAAIGVSRFASMNNLEAFIVLNDSDIDPTLRRVMDEIDKKPELKERFVTSDEAWDMMTSKTTVVVVDTHKPEMVLDENVLNKANRKVVIDHHRRGESFISNPLLVYMEPYASSTAELVTELLEYQPTEQRLTRLESTVMYAGIIVDTRNFTLRTGSRTFDAASYLRAHGADTILTQHFLKDDV", "not soluble"],
  ["MGSDKIHHHHHHMVMMSKQLTAQAPVDPIVLGKMGSSYGIRGWLRVFSSTEDAESIFDYQPWFIQKAGQWQQVQLESWKHHNQDMIIKLKGVDDRDAANLLTNCEIVVDSSQLPQLEEGDYYWKDLMGCQVVTTEGYDLGKVVDMMETGSNDVLVIKANLKDAFGIKERLVPFLDGQVIKKVDLTTRSIEVDWDPGF", "not soluble"]
]}

soluble on expression in E. coli for MTWQVQRRKWKLNLIAELESRVLAEPVPLPADPMELKNLEYRPVKVRGCFDHSKELYMMPRTMVDPVREAREGGLISSSTQSGAYVVTPFHCTDLGVTILVNRGFVPRKKVNPETRQKGQIEGEVDLIGMVRLTETRQPFVPENNPERNHWHYRDLEAMARITGAEPIFIDANFQSTVPGGPIGGQTRVTLRNEHLQYIVTWYGLSAATSYLWFKKFLRGTPGV ? not soluble

soluble on expression in E. coli for SYVQEHRLWGLMDKPHSAPCLMSLSLSFLICNKGRNAIRVQQSTDERMDAMLLWQCPTQGTRKNHESNSSLHHVPNWIFHSTIIPPNKGSKRCLRKVDWLLPRAGGVGGKRGVTADGDRVSF ? soluble

soluble on expression in E. coli for MSTITKEWLLKTIAELEEERDATPGAVNEDAAMALAAMKLALASLEAEPVAWLLSGGGAKNNVSFDSGNAYAAQLREVTPLYTAPPAPVSVPAAMEIDDDFDSAFEHGKAVGWNAYRAAMLQAEPVSNSDELPLDYLQGHKDGLEWAAQLAEANHPQTGDWLYDDQIELARAIRKGPDMPTVQGGNSPVIPDGWVMVPVELTPDMRAAWDSAPYTDDDDNDMQAAYRAMIAVAPQWKVK ? not soluble

* * *

assay_method_text: soluble on expression in E. coli; label from the status in PepcDB or PDB records
measured_metric: soluble on expression in E. coli

Worked cases, soluble on expression in E. coli given:
{"columns": ["primary_sequence", "measured_metric", "result"],
 "data": [
  ["MGSDKIHHHHHHACSSDDDNTVNDETTPPEEEAVVTAPDVVGTYWGNLDISMLPDGSDQEVVIADGLPKFITFSQVSDTEVKMELKEFELFINGNILKFGDIVIDKCAVKKETDASTFTGQQDLTFQGDAAALGTCATSIEGTVQSGNATMNIQVKVPALKQTVKVAFSGVKQVEESGKD", "soluble on expression in E. coli", "not soluble"],
  ["SSVNYAAGLSPYADKGICGLPETFDSPEELKTKVETLAQWIRESQYMVVHSGAGISTSTGIPDFRGPNGVWTMEERGETPHFNTTFEDARPSLTHMALLQMQRTGHLKYLISQNVDGLHVRSGFPRDRLSELHGNMFVEECEKCGKQYVRDTVVGVMGLKPTGRYCDVMRSRGLRSCRGKLISSILDWEDSLPDRDLNRADEASRRADLALTLGTSLQIKPSGDLPLLTKRTGGKLVIVNLQPTKHDKHAHLRIYGYVDDVMGQLMKLLGLDVPEWAGPTLCEDSGGDLDILPYGAWKKEVKIELKIEESNHTVSKKRKRKEQHAEEGYKNGVKVEEEMKEEGKESDSHVHTHT", "soluble on expression in E. coli", "soluble"],
  ["MKLLTLNCHSWQEENQIEKIQYLAKVIQEEEYDVIALQEVSQSIQAENVCGNKKKDNFGLLLLEELKALHVKDYNITWDFSHIGYDVYEEGLAIITKHNIIKEDTFFISENEDTTYWKTRKIVSTTIAYNGKDITFYSCHLGWWNDEEESFKGQVDRLMERVDSNKLAFLMGDFNNNARLKGEGYEYMMQKGLYDTYELAIEKDEGTTVQGEIAGWDENKHNLRIDLILCNQSKKVHSSKVIFNGTNRNVISDHFGVEVQLDI", "soluble on expression in E. coli", "not soluble"],
  ["MSGELRVRRASSWELDLILKEAEKYGELLHEFFCVVEGKYRDVYAVNEEVWKIIEDINMRPYSLGTFVGTIRVDENLVEKFYPNLEFFSLIKLEKNYVILGPKASFLFTTGKDAPKEAVREIKWQGSKRVVVLNDLGDIIGIGLINPKSDRRFIKNLKDVGEFLRR", "soluble on expression in E. coli", "soluble"],
  ["MHSKMDCVSRSPLFSPLAPAVKAKLITVTHHRKFYQKGQLIRQPLDHQEGMLILDEGTAKIYALAANGKEKIIELLRSGDVVGQHWLFAPHENQGFIQATSDAWVCSIQYDDFQRLLGESASLSLAMINNFGNQLIEAEKNQLRRDLLDAKARLMAYLRDCAVESGQIEFELPLKKKELANILGITPETLSRQFKQLAAEGQIIVNKRQITIC", "soluble on expression in E. coli", "not soluble"]
]}

soluble on expression in E. coli for MSLNYNAPHRHAVIELSQSAVVHNLKVIKENTHAKEIMAVLKANAFSHGLPEMASLSITAGATRFGMAMLDEALILRDLGYIQPIDVLGLTDPRYARLAAERNITLAFSTKESIKAAAEQLAGTGLTLKVSLPVDTGLNRIGFKSREDLVAAIQEVSAQDTLIFQSMWTHFATADTPNVDYVDFQISEWQRLTHDLPVEPNEKHFANTGIATWYPEKINTDIVRLGIGLFGINGSVPIMSMPFELIPALSLKAKVVNSKPLKKGDAVGYGAEYHAPNDGYLITIPIGHSDGYPFNGSGMRALVADGQIGHIVGGVAMDQSMILVTNPVAVGTTVTLIGRVGDQSITMQDLAEHTQSSIVALMNDFAPRLQRIIVSEGHHHHHH ? not soluble

* * *

assay_method_text: soluble on expression in E. coli; label from the status in PepcDB or PDB records

{"columns": ["primary_sequence", "soluble on expression in E. coli"],
 "data": [
  ["MGSDKIHHHHHHMASLQIAHNTRIVKEAARIAGFDYCGISAARFLEEEAPRLESWLNRNQHGTMSWMENYFDKRLDPRKLVDGAKSVVSVLLNYTPAPEDEILSTGETKISRYAYGKDYHYVLKDKFKQMLQHITEQIGEVNGRAFVDSAPVMDKAWAKQGGLGWVGKHSNIITKDSGSYFFIGELIIDLELDADGPIKDYCGTCTRCIDACPTNAITEPYQVDGSKCISYLTIELKEQIPSEFKEQMQGWAFGCDICQEVCPWNRFAQPINKNEFSPSEELKKYFEMPLKEITKEVFNILFKDSTIKRTKIEGLSRNLTFIKKET", "not soluble"],
  ["MDKRYLESDVFEAFQERLSYLFNEFDYIYVSFSGGKDSGLLLNLVLDYKRKNNISSKIGVFHQDFEAQYSLTTEYVEKVFEDNIEDIEPYWVCLPMATRTAVGNYEMYWYPWDDEKEELWVREMPVKEYIINQKNNPFTYYKYKMRQESLAKQFGRWIRDIHEGAKVVCLLGTRAAESLQRYCSIVNKQHGYKGKCWITKEFKNVWTASPIYDWEIEDIWLAHYKFDYDYNKIYDLFYK", "not soluble"]
]}

* * *

assay_method_text: soluble on expression in E. coli; label from the status in PepcDB or PDB records
measured_metric: soluble on expression in E. coli

Worked cases, soluble on expression in E. coli given:
{"columns": ["primary_sequence", "soluble on expression in E. coli"],
 "data": [
  ["MAHHHHHHMSGEVDFWSATIAAYQPLQLTSPELTPKLLKRPPFRFIHDIVCSIDARFAAYDHIIPAELRDSAQVDTKEKKIEYLTTLIQYINRIMKVEIDVNPKKIVSGNEPEKTNIFLQYLAAGVGYAQQDKAAQATPAPQQKSAASLASPASPAAASFSTNPAQDNLSLSLASGLCRKKSSSRDPAERRRSHVSVFDEAAKFNRKLSGYSLNLNLDEQRDVRSEGQSIVRMWNELANPQTETKPSHMPQEALETAIKRQIETVKMVQELLSENDRVIDKLEALVI", "not soluble"],
  ["KNFHVVLEAAWLVRDVKTADDAIGVAISEAGKRLNPKLDFVEVDVGTTSCPVCGEPFSSVFIAANTALVGLIFEMKVFDAESAEHAERIAKSVIGKSLRDVP", "not soluble"],
  ["KGLMSKVKVITRGEATRLINKEDAVVVDLRQRDDFRKGHIAGAINLLPSDIKANNVGELEKHKSQPIIVVDGSGMQAQEPASALNKAGFEKVFVLKEGIAGWSGENLPLVRGK", "not soluble"],
  ["MGSDKIHHHHHHYLPDDEPKKLIVNAMMQTENNDNRIYLHYTGWTATTPVTDGIIHLYINGKLSETITAEDDYYPVKSIFRTGDKVKIEASSENGKYKAKAETRISAPLQIINVDTTYISLRDYNSWVGGKPVYDNYLRLNIQLKQPDIEAENTYYRLEIKQIFYSHKWHDGRDTLSIDTTYNYNYIYDTALTDGKPGHAIDEGFELIQKWNNYFGLFKSCYFKNREYNMTIDLKEDINYIHIDSQKAERYISIRFYSISESEHRYLYAMSSALDFDAENFIYAVPLIPNNIKGGIGIFSIANQVKYKLKEENCQDRY", "not soluble"],
  ["MYVLIGGAGLVGLTLAQKLVELGHTVAIIDVDHTACRYAREQVGAMAFEGSAVSTEVLLEAGIRKADALAAVLRNDALNLAMVMLAKHYGVSHILSRMRHADFAQPLRLAGANHVISTVELSVSTMVNAIEYPQVESMMHFEQGQIEVLKISIPNSCYVANRSLAEIAQDSRFPSGSLIIGYQPHPHEDLVIPNGSTVLESGSTILIATKPGSLHQVIDFIEGCKLEHHHHHH", "not soluble"]
]}

Shift focus to the following entry.
soluble on expression in E. coli for MKQPPLEDQYQMFGSIALSAFGAELLRHSLLPELLGKDAASLLYWAGKQLARRYPLGTLDDVAVFFERAGWGELSTGEERNDELYIELSGPIIAARFSLYGSCSFQLEAGFLAQQIEQQKRFVTEAVELPPKRDGKARILVKWDRKQAIE ? not soluble
